RUN_DESCRIPTION: chemical genetic growth profiling, strain panel (AID 1159580);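 further: tested at 20 µM; growth read once vehicle control cultures reached saturation at 30 °C; 1 = growth at the plate median or of vehicle wells; lower values mean less growth of the strain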
CONDITION_CONTEXT: S. cerevisiae deletion strains, growth OD, locus YMR307W, strain GAS1, hits give low values
Screen size: about 5,500 compounds; about 2,000 (36%) were called active. Roughly 18% stayed inconclusive and do not appear here. Some of the results follow.
Reported normalized growth values for a set of compounds
Please give the numeric answer without any surrounding text.

Prompt: Determine from records and report normalized growth for COC(OC)c1cc(=O)[nH]c(=S)[nH]1
Response: 1.12

Prompt: Supply reported normalized growth belonging to this compound: CC(=O)O[C@H]1CCC2(C)C3=C(CCC2C1(C)C)[C@@]1(C)CC[C@@H](C(C)CCC=C(C)C)[C@]1(C)CC3 (stereo not given in full)
Response: 0.972

Prompt: Indicate its recorded normalized growth; the compound in question is CCCOc1ccc2nc(NC(=O)OC)[nH]c2c1
Response: 0.844

Prompt: Give the reported value of normalized growth for this record: Clc1cncc(Cl)c1N/N=C\C1CC2C=CC1C2 (stereo not given)
Response: 0.878

Prompt: Please give the documented normalized growth of CC(C)CCCC(C)C1CC[C@@]2(C)C3=C(CC[C@]12C)[C@@]1(C)CC[C@H](O)C(C)(C)C1CC3 (stereo not given in full)
Response: 0.957

Prompt: Name the recorded normalized growth of the compound listed here: CC(C)=CCCC(C)C1CC[C@@]2(C)C3=C(CC[C@]12C)C1(C)CC[C@H](O)C(C)(C)C1CC3 (stereo not given in full)
Response: 0.952

Prompt: Identify measured normalized growth corresponding to C/C1=C\CC(C)(C)/C=C/CC2(C)OC2CC1 (stereo not given)
Response: 0.978

Prompt: Tell us which normalized growth value is on record for Cc1cc(=O)[nH]c(=S)[nH]1
Response: 1.05

Prompt: Supply recorded normalized growth for Cc1scc2c1N(C(=O)CN1CCN(C)CC1)c1ccccc1NC2=O here.
Response: 0.981

Prompt: State its normalized growth for this compound: CN(C)[C@@H]1C(=O)C(C(N)=O)=C(O)[C@@]2(O)C(=O)C3=C(O)c4c(O)ccc(Cl)c4[C@@](C)(O)[C@H]3C[C@@H]12
Response: 0.956

Each recorded value in this set is attributed to PubChem BioAssay AID1159580.
